- tested-system: human B-Raf protein kinase (Homo sapiens, UniProt P15056)
- Construct: GST (N); 14-420 (Mek1)
- Sequence (P15056 416-766): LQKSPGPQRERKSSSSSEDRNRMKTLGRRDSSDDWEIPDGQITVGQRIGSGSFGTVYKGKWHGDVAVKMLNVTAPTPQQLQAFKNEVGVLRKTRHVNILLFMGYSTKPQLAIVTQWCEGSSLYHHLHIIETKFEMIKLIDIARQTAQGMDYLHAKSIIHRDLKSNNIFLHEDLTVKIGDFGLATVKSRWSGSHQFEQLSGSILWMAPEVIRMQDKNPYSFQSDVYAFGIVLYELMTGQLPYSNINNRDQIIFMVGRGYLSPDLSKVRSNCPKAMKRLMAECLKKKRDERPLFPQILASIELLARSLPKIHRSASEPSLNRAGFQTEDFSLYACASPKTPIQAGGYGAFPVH
- experiment-notes: In vitro B-Raf/Mek1 composite kinase assay
- Procedure: In Vitro B-Raf/Mek1 Composite Kinase Assay 2.5 μl of B-Raf kinase buffer (20 mM MOPS [pH 7.2], 25 mM sodium glycerophosphate, 2 mM EGTA [pH 8.0], 1 mM sodium orthovanadate, 1 mM dithiothreitol, 10 mM MgCl2, 0.03% Brij-35, 0.3 mg/ml bovine serum albumin) containing lng of recombinant, N-terminal GST-tagged human B-Raf protein kinase (Δ1-415, Upstate Inc., cat. #14-530) is dispensed to wells of a 1536 multi-well white solid plate. […] Efficacy is measured as a percentage of positive control activity.
pIC50: −log10 of the molar value.
recorded-metric: pIC50

As a guide, the following entries are already answered.
{"structure": "O=C(Cc1ccc(F)c(C(F)(F)F)c1)Nc1cccc(Oc2ccnc(-c3nnco3)c2)c1", "pIC50": "< 5.00"}
{"structure": "Cn1cc(-c2cc(Oc3cccc(NC(=O)c4ccc(C(=O)c5ccccc5)cc4)c3)ccn2)cn1", "pIC50": "≥ 5.00"}
{"structure": "Cn1cc(-c2cc(Oc3cccc(NC(=O)c4cccc(Oc5ccccc5)c4)c3)ccn2)cn1", "pIC50": "< 5.00"}
{"structure": "CCOc1cccc(C(=O)Nc2cccc(Oc3ccnc(-c4cnn(C)c4)c3)c2)c1", "pIC50": "≥ 5.00"}
{"structure": "Cn1cc(-c2cc(Oc3cccc(NC(=O)c4ccccc4-n4ccnc4)c3)ccn2)cn1", "pIC50": "< 5.00"}
{"structure": "Cn1cc(-c2cc(Oc3cccc(NC(=O)c4cccc(C(=O)c5ccccc5)c4)c3)ccn2)cn1", "pIC50": "< 5.00"}
{"structure": "O=C(Nc1cccc(Oc2ccnc(-c3nnco3)c2)c1)c1cccc(Oc2ccccc2)c1", "pIC50": "< 5.00"}
{"structure": "Cn1cc(-c2cc(Oc3cccc(NC(=O)c4ccc(-n5cccc5)cc4)c3)ccn2)cn1", "pIC50": "≥ 5.00"}
{"structure": "COc1ccc(C(=O)Nc2cccc(Oc3ccnc(-c4nnco4)c3)c2)cc1OC1CCCC1", "pIC50": "< 5.00"}
{"structure": "O=C(Nc1cccc(Oc2ccnc(-c3nnco3)c2)c1)c1cccc(N2CCOCC2)c1", "pIC50": "< 5.00"}

The molecule listed as Cn1cc(-c2nccc(Oc3cccc(NC(=O)c4ccc(OC(F)(F)F)cc4)c3)n2)cn1 has a reported pIC50 of < 5.00

The molecule listed as Cn1cc(-c2cc(Oc3cccc(NC(=O)c4ccc(C#N)cc4)c3)ccn2)cn1 has a reported pIC50 of ≥ 5.00

The molecule listed as Cn1cc(-c2cc(Oc3cccc(NC(=O)c4cccc(C#N)c4)c3)ccn2)cn1 has a reported pIC50 of ≥ 5.00

The molecule listed as O=C(Nc1cccc(Oc2ccnc(-c3nnco3)c2)c1)c1ccc2c(c1)OCCCO2 has a reported pIC50 of < 5.00

The molecule listed as Cn1cc(-c2cc(Oc3cccc(NC(=O)c4ccc5[nH]nnc5c4)c3)ccn2)cn1 has a reported pIC50 of ≥ 5.00

The molecule listed as Cn1cc(-c2cc(Oc3cccc(NC(=O)c4cccc(-c5ccccn5)c4)c3)ccn2)cn1 has a reported pIC50 of < 5.00

The molecule listed as Cn1cc(-c2cc(Oc3cccc(NC(=O)c4ccc5ccccc5c4)c3)ccn2)cn1 has a reported pIC50 of < 5.00

The molecule listed as Cn1cc(-c2cc(Oc3cccc(NC(=O)c4cccc(C(F)(F)F)c4)c3)ccn2)cn1 has a reported pIC50 of < 5.00

The molecule listed as Cn1cc(-c2cc(Oc3cccc(NC(=O)c4ccc(OC(F)(F)F)cc4)c3)ncn2)cn1 has a reported pIC50 of < 5.00

The molecule listed as Cn1cc(-c2cc(Oc3cccc(NC(=O)c4cccc(-c5ccncc5)c4)c3)ccn2)cn1 has a reported pIC50 of < 5.00
